Each recorded value in this set is attributed to patent EP0116439A2.

SYSTEM TESTED: testosterone 5α-reductase
ASSAY METHOD TEXT: testosterone 5α-reductase inhibitory activity (conversion of labelled testosterone to 5α-dihydrotestosterone)
ASSAY CONDITIONS: microsome from rat prostate gland cells, 25°C, 60 minutes, pH 6.6
Kindly state pIC50 for each of the entries shown.
Scale note: pIC50 = -log10(concentration in M).

Tell me measured pIC50 for CCC=CC=CC=CC=CCCCCCCCC(=O)O [Parinaric acid, parinaric acid] please.
2.96

Kindly indicate its recorded pIC50. Item: CCCCCC/C=C\CCCCCCCC(=O)O [Palmitoleic acid, palmitoleic acid]
3.74

Input CCCCCCCC(=O)O [n-Caprylic acid, n-caprylic acid] , output reported pIC50.
2.77

Answer with reported pIC50 of CCCCC/C=C\C/C=C\C/C=C\C/C=C\CCCC(=O)O [Arachidonic acid, arachidonic acid]
3.82

// Input: CCCCCCCCCCCCCCCC(=O)O [Palmitic acid, palmitic acid] . Output its pIC50 only.
3.52

Identify pIC50 associated with the molecule CCCCCCCCCCCC(=O)O [Lauric acid, lauric acid]
3.22

Answer with the recorded pIC50 of CCCCCCCCCCC/C=C\CCCCC(=O)O [Petroselinic acid, petroselinic acid] only.
3.55

Could you please provide reported pIC50 for CCCCCCCCCCCCCC(=O)O [Myristic acid, myristic acid] ? Thanks!
2.74

Kindly indicate its recorded pIC50. Item: CCCCCCCCCC(=O)O [n-Capric acid, n-capric acid]
3.30

Answer with the recorded pIC50 of CCCCC/C=C\C/C=C\CCCCCCCC(=O)O [Linoleic acid, linoleic acid] only.
3.74

Please indicate pIC50 recorded for CCCCCCCC/C=C\CCCCCCCC(=O)O [Oleic Acid, oleic acid]
3.49

* * *

Exercise: state measured Difference b, Average for each of the compounds provided.
Tested on: male rabbits
ASSAY METHOD TEXT: fur growth on shorn back of rabbits
Type: in vivo
Parameters: unit not given here
ASSAY CONDITIONS: test side minus control side, 0.2% fatty acid solution, twice a day for one week
Give only the figure.

Supply reported Difference b, Average belonging to this compound: "CCCCCC/C=C\CCCCCCCC(=O)O"
0.862

Tell us which Difference b, Average value is on record for "CC/C=C\C/C=C\C/C=C\CCCCCCCC(=O)O"
0.45

Return reported Difference b, Average. Input compound: "CCCCCCCCCCCCCC(=O)O"
0.661

Find the measured Difference b, Average of "CCCCCCCCCCCCCCCC(=O)O" and report it.
0.958

Provide one value: measured Difference b, Average of "CCCCCCCC(=O)O"
0.32

Please give measured Difference b, Average of the following entry: "CCC=CC=CC=CC=CCCCCCCCC(=O)O"
0.60

Tell me Difference b, Average reported for "CCCCCCCCCC(=O)O"
0.557

// fetch Difference b, Average given entry "CCCCCCCCCCC/C=C\CCCCC(=O)O"
0.50

Supply recorded Difference b, Average for "CCCCCCCCCCCC(=O)O" here.
0.776

Return Difference b, Average (reported value) for this compound: "CCCCC/C=C\C/C=C\C/C=C\C/C=C\CCCC(=O)O"
0.78

Report Difference b, Average for "CCCCCCCC/C=C\CCCCCCCC(=O)O"
0.626
